Experimental Target: human ether-à-go-go-related gene (hERG) potassium channel (human, UniProt Q12809);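 also: peak tail current of the secondary pulse compared with the same well before compound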
Sequence (Q12809 whole entry, looked up): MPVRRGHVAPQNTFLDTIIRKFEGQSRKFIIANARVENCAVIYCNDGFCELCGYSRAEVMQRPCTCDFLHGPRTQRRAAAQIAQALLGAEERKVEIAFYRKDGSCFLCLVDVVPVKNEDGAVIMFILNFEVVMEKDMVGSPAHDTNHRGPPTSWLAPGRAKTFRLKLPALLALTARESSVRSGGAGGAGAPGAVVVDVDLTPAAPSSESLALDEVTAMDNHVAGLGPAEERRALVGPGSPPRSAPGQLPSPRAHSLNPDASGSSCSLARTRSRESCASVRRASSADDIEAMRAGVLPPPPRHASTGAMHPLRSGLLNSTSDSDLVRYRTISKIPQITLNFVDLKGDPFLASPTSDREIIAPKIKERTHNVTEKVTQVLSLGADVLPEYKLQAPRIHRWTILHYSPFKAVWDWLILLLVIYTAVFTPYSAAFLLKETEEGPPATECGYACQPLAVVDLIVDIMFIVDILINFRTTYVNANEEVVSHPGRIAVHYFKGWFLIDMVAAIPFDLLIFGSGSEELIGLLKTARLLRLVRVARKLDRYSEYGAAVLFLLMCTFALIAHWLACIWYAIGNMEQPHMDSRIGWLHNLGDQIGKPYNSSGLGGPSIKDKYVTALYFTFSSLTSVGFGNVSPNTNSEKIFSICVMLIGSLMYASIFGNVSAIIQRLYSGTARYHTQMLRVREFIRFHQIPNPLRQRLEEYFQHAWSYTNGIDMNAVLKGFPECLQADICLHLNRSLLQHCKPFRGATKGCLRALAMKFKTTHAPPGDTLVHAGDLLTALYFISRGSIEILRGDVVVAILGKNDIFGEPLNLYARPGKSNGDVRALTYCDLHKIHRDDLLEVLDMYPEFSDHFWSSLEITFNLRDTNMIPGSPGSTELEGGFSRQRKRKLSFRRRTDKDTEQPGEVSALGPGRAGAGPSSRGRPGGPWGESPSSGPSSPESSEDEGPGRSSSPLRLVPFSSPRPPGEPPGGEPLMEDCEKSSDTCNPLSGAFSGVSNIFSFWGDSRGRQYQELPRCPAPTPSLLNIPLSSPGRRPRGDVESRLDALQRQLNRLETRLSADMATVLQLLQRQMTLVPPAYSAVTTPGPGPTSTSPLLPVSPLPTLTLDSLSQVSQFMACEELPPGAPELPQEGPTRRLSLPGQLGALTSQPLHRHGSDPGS
Protocol: primary screen, population patch clamp on CHO cells stably expressing hERG; higher = less effect of the substance
The campaign covered roughly 310,000 compounds. About 14,000 (4.5%) showed an effect of 50% or more. Effects have a minus sign here. The sample holds strong results, similar compounds and a random draw of the others, so the mix is not that of the screen.
Reported hERG current change (%, negative = inhibition) at 10uM values are given for each entry in this list.
Note: unit % is implicit; provide only the numeric part.

Examples with their reported hERG current change (%, negative = inhibition) at 10uM follow.
{"Compound": "O=C(CCC1CCCC1)N1CCC(N2CCCCCC2)CC1.O=C(O)C(=O)O", "Numeric Result": -29.9}
{"Compound": "c1cc(C(c2nnnn2C2CCCCC2)N2CCN3CCCC3C2)ccn1 (centres unmarked)", "Numeric Result": -1.98}
{"Compound": "CSc1nnc2c3ccccc3n(CCc3ccccc3)c2n1", "Numeric Result": -12.1}
{"Compound": "O=C1CCCCC1Oc1ccc2ccc(=O)oc2c1 (centres unmarked)", "Numeric Result": 19.6}
{"Compound": "CCOc1cc(C2Nc3ccccc3C(=O)N2c2ccccc2OC)ccc1O (centres unmarked)", "Numeric Result": 1.46}

We next turn to a different compound, shown below.
The value of hERG current change (%, negative = inhibition) at 10uM measured for the compound COc1ccc(CNC(=O)C2(CC3CC(c4ccccc4)=NO3)CCN(C(=O)C3CCCC3)CC2)cc1 (centres unmarked) turned out to be -71.6
